The values you see were collected from patent US7947717B2.

Each record here notes measured half-life.
- experimentSummary: in vitro
- experimentalParameters: rat, hepatocytes, pH 7.4

smilesNotation: O=C(O)CN1C(=O)/C(=C/c2ccc(-c3cc(C(F)(F)F)ccc3Cl)o2)SC1=S
half-life (min): 42.4
--
smilesNotation: COc1ccc(-c2ccc(/C=C3\SC(=S)N(CC(=O)O)C3=O)o2)cc1Cl
half-life (min): 37.1

###

compound: O=C(O)CN1C(=O)/C(=C/c2ccc(-c3cccs3)s2)SC1=S
Pampa (d) permeability class: Med.
--
compound: COCCc1ccc(OCC(O)CNC(C)C)cc1 (stereo not shown)
Pampa (d) permeability class: High
--
compound: O=C(O)CN1C(=O)/C(=C/c2ccc(-c3ccc(Cl)c(Cl)c3)o2)SC1=S
Pampa (d) permeability class: Med.
--
compound: CC(C)NCC(O)COc1cccc2ccccc12 (stereo not shown)
Pampa (d) permeability class: High

###

Each record here notes measured IC50.
- studySystem: BoNT A (Clostridium botulinum)
measureName: IC50

compound: O=C(O)CN1C(=O)C(=Cc2cc(-c3ccc(Br)cc3)on2)SC1=S [Compound 26]
measureName: IC50
experimentalResult: > 200 µM
//
compound: O=C(O)CN1C(=O)/C(=C/c2cn(-c3ccc(Br)cc3)nc2-c2ccc(Br)cc2)SC1=S [Compound 35]
measureName: IC50
experimentalResult: 5.45 µM
//
compound: O=C(O)CN1C(=O)/C(=C/c2cn(-c3ccccc3)nc2-c2ccc(S(=O)(=O)N3CCOCC3)cc2)SC1=S [Compound 31]
measureName: IC50
experimentalResult: > 200 µM
//
compound: COc1ccc(-c2nn(-c3ccccc3)cc2/C=C2\SC(=S)N(CCS(=O)(=O)O)C2=O)cc1 [Compound 40]
measureName: IC50
experimentalResult: > 200 µM
//
compound: O=C(O)C(c1ccccc1)N1C(=O)/C(=C/c2ccc(-c3cccc(Cl)c3)o2)SC1=S (centres unmarked) [Compound 8]
measureName: IC50
experimentalResult: 127 µM
//
compound: O=C(O)CN1C(=O)/C(=C/c2csc3ccccc23)SC1=S [Compound 57]
measureName: IC50
experimentalResult: > 200 µM
//
compound: O=C(O)CN1C(=O)/C(=C2/C(=O)N(CC(=O)Nc3cccc(Cl)c3)c3ccccc32)SC1=S [Compound 62]
measureName: IC50
experimentalResult: > 200 µM
//
compound: O=C(O)CN1C(=O)/C(=C/c2cc3nccnc3s2)SC1=S [Compound 59]
measureName: IC50
experimentalResult: > 200 µM

###

The listing below reports IC50 for compounds tested on BoNT A (Clostridium botulinum, UniProt P0DPI0).
Sequence (P0DPI0 whole entry, looked up): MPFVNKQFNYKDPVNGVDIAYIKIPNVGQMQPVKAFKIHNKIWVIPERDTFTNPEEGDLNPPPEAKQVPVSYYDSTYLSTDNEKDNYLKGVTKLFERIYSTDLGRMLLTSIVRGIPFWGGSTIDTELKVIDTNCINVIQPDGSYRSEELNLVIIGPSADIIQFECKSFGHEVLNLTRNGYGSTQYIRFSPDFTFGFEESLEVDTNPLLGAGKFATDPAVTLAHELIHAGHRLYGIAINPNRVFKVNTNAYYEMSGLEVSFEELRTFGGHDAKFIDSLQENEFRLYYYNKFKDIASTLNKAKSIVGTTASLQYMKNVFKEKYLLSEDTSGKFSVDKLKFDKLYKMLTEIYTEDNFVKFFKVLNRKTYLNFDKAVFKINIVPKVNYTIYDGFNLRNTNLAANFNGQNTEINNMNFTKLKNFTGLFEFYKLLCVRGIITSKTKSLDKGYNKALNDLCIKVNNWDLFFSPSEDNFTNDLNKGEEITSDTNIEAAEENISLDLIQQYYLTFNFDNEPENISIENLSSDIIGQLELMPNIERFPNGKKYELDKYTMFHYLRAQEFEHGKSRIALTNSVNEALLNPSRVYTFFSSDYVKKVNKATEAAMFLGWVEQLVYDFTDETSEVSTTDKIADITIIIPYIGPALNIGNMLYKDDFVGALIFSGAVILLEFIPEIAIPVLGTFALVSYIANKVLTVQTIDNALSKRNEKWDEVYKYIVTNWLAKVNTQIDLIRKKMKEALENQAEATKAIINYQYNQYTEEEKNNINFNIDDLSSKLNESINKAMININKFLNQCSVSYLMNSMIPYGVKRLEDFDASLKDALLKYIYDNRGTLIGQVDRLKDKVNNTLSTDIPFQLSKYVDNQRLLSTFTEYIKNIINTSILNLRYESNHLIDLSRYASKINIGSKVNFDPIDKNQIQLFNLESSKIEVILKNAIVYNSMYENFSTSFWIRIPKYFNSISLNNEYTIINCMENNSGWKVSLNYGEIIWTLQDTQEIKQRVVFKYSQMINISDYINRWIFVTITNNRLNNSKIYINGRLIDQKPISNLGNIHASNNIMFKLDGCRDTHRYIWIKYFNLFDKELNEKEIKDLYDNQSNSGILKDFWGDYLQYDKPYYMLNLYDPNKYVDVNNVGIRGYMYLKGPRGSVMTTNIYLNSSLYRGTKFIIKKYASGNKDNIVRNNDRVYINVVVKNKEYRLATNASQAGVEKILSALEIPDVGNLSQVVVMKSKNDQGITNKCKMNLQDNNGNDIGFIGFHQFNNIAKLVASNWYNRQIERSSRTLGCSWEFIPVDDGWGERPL
measureName: IC50 (µM)

smilesNotation: CN1CCCN(c2ccc(/C=C3\SC(=S)N(CC(=O)O)C3=O)cc2)CC1
measureName: IC50
rel: >
experimentalResult: 50
//
smilesNotation: O=C1/C(=C/c2ccc(-c3cccc(Cl)c3)o2)SC(=S)N1CCS(=O)(=O)O
measureName: IC50
rel: =
experimentalResult: 19.9
//
smilesNotation: COc1ccc(-c2nn(-c3ccccc3)cc2/C=C2\SC(=S)N(CC(=O)O)C2=O)cc1C
measureName: IC50
rel: =
experimentalResult: 127
//
smilesNotation: O=C(O)CN1C(=O)/C(=C/c2cn(-c3ccc(Cl)cc3)nc2-c2ccc(Cl)cc2)SC1=S
measureName: IC50
rel: =
experimentalResult: 8.18
//
smilesNotation: O=C1/C(=C/c2cn(-c3ccccc3)nc2-c2ccc(S(=O)(=O)N3CCCCC3)cc2)SC(=S)N1CCS(=O)(=O)O
measureName: IC50
rel: =
experimentalResult: 20.1
//
smilesNotation: O=C(O)CN1C(=O)/C(=C/c2cc(-c3ccc(Cl)cc3)[nH]n2)SC1=S
measureName: IC50
rel: >
experimentalResult: 200
//
smilesNotation: O=C1/C(=C/c2ccc(-c3ccc(Cl)cc3)o2)SC(=S)N1CCS(=O)(=O)O
measureName: IC50
rel: >
experimentalResult: 200
//
smilesNotation: O=C(O)CN1C(=O)/C(=C/c2cccc(N3CCCC3)c2)SC1=S
measureName: IC50
rel: >
experimentalResult: 200
